B1: TMEM106C (parent)
chain: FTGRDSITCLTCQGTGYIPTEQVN

Variants of: B1
Experiment: protein stability index of a GFP-peptide fusion (GPS, HEK-293T) (PSI 1-6); higher = more stable;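 further: lentivirally expressed fusions sorted by FACS into six bins by GFP to DsRed ratio, PSI derived from sequencing read proportions per bin multiplied by bin number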
Conditions: c terminus: a fixed tail appended

[
  {
    "Sequence change": "D5E",
    "protein stability index": 1.96
  },
  {
    "Sequence change": "L10C",
    "protein stability index": 1.99
  },
  {
    "Sequence change": "N24T",
    "protein stability index": 2
  },
  {
    "Sequence change": "C12S",
    "protein stability index": 2
  },
  {
    "Sequence change": "P19K",
    "protein stability index": 2
  },
  {
    "Sequence change": "Q22C",
    "protein stability index": 2
  },
  {
    "Sequence change": "I18D",
    "protein stability index": 1.96
  },
  {
    "Sequence change": "T20I",
    "protein stability index": 1.99
  }
]

Each recorded value in this set is attributed to the supplement of paper PMC10567573.
